system-under-test: Hck (UniProt P08631)
Sequence (P08631 whole entry, looked up): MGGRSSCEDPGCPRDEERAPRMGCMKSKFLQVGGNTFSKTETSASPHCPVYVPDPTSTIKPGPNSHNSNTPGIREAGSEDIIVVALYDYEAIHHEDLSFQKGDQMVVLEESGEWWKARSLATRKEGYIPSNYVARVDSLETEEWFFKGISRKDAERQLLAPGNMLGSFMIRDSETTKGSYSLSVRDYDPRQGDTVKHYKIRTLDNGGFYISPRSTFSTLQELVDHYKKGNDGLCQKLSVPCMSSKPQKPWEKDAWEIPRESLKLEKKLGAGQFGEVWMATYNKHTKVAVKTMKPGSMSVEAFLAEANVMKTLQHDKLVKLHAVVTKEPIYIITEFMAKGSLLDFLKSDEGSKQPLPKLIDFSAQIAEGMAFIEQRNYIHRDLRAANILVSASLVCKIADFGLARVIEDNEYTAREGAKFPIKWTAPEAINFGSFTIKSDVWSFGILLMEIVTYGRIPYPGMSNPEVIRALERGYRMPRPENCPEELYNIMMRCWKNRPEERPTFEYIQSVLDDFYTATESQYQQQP
test-details: phosphorylation enrichment, bacterial display (enrichment ratio); higher = better substrate or ligand; peptides without Tyr show the background
measure-name: phosphorylation enrichment

seq_string="AAYNKYDQERF [CDC73_Y293_R292K]" measure_name="phosphorylation enrichment" measured_number=0.299
seq_string="QLGLQYSQGLV [EIF2B4_Y214_R209Q]" measure_name="phosphorylation enrichment" measured_number=0.598
seq_string="ADEQIYWQIAA [CSKtide_2014]" measure_name="phosphorylation enrichment" measured_number=4.33
seq_string="LYEDCYLLGTS [ASS1_Y87_R86C]" measure_name="phosphorylation enrichment" measured_number=1.9
seq_string="ERTIEYLEEVA [HADHA_Y239]" measure_name="phosphorylation enrichment" measured_number=0.622
seq_string="VLTSKYPGGGG [HBA1_Y141_R142P]" measure_name="phosphorylation enrichment" measured_number=0.296
seq_string="FPPDGYSRHCE [CTNND1_Y213_Y217C_YF]" measure_name="phosphorylation enrichment" measured_number=0.473
seq_string="GDEVEYMSVSF [GCLC_Y53_L55S]" measure_name="phosphorylation enrichment" measured_number=1.26
seq_string="RPIEVYLCPEE [E2F3_Y349_G344R]" measure_name="phosphorylation enrichment" measured_number=1.04
seq_string="WYQTKYEELQV [KRT6B_Y360_I365V]" measure_name="phosphorylation enrichment" measured_number=0.723
seq_string="KAIMIYVSSFF [ACTN4_Y260_T259I_YF]" measure_name="phosphorylation enrichment" measured_number=0.429
seq_string="NGSKAYAYVHF [PABPC5_Y147_G146A]" measure_name="phosphorylation enrichment" measured_number=0.438
seq_string="ALKKPYSVLYK [RPF2_Y59_G60S]" measure_name="phosphorylation enrichment" measured_number=0.474

====

system-under-test: FGFR1 (UniProt P11362)
Sequence (P11362 whole entry, looked up): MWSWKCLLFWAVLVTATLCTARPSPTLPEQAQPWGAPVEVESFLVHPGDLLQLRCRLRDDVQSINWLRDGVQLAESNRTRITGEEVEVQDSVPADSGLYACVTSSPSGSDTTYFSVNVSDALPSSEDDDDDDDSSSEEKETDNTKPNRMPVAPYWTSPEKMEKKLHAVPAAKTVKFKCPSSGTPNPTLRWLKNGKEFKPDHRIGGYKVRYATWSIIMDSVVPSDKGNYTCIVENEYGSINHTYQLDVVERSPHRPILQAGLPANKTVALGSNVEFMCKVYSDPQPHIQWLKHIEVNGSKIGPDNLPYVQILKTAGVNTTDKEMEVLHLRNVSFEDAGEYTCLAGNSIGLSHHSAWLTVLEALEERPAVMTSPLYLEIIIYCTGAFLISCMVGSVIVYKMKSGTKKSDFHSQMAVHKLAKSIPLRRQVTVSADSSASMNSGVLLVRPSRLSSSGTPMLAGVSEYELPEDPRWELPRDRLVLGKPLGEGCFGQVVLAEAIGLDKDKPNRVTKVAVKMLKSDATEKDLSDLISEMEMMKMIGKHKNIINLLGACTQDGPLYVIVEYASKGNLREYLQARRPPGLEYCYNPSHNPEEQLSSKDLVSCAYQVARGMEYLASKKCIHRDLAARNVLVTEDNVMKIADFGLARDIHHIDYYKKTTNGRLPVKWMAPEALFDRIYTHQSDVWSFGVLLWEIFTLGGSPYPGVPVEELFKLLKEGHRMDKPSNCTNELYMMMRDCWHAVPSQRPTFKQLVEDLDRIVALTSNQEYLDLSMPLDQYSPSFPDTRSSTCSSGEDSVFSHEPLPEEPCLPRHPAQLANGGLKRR
test-details: phosphorylation enrichment, bacterial display (enrichment ratio); higher = better substrate or ligand; peptides without Tyr show the background
Here, each record is paired with measured phosphorylation enrichment data.
measure-name: phosphorylation enrichment

seq_string="KPVDTYFDSTR [DYNC2H1_Y2230_M2227V_YF]" measured_number=0.624
seq_string="AYGNLYGSRKQ [YIPF7_Y59]" measured_number=0.484
seq_string="EQLGEYKFQNA [ALB_Y425]" measured_number=0.471
seq_string="FSQETYYRVSN [ABCD1_Y180_Q178E]" measured_number=4.96
seq_string="LARDMYDKEFF [MET_Y1230_YF]" measured_number=0.517
seq_string="MASTSYDFCRV [BST2_Y6_YF]" measured_number=0.572
seq_string="PESILYRKFTT [NTRK1_Y701]" measured_number=0.627
seq_string="ESLRRYLENGK [HLA-B_Y195_W191S]" measured_number=0.397
seq_string="PPKFFDTRKLL [CYBB_Y41_Y41D]" measured_number=0.365
seq_string="SPFAVYLFFTF [RPGRIP1_Y826_R827L_YF]" measured_number=0.467
seq_string="IHFPPYTDWNQ [ALDH3B2_Y365_YF]" measured_number=0.659
seq_string="SCRSKYVGLWG [KCNQ1_Y184_G179S]" measured_number=0.364
seq_string="QPSALYEDRYL [ASS1_Y83_S79P]" measured_number=0.529
seq_string="SLALFYRNVFH [RBL1_Y792_K794N_YF]" measured_number=0.447

====

system-under-test: SHP2-C SH2
test-details: SH2 binding enrichment of the phosphorylated peptide, bacterial display (enrichment ratio); higher = better substrate or ligand; peptides without Tyr show the background
measure-name: SH2 binding enrichment

seq_string="CTTLHYNFMCN [TP53_Y234_I232L_YF]" measure_name="SH2 binding enrichment" measured_number=1.64
seq_string="LKMLVYLDMSK [LRRC7_Y234]" measure_name="SH2 binding enrichment" measured_number=0.721
seq_string="SFCFRYRCAPR [SUMF1_Y344_A348P_YF]" measure_name="SH2 binding enrichment" measured_number=0.584
seq_string="VFSTDYFRVGG [NTRK2_Y706_YF]" measure_name="SH2 binding enrichment" measured_number=0.697
seq_string="FRDALYKFMVD [PHEX_Y250_YF]" measure_name="SH2 binding enrichment" measured_number=0.956
seq_string="ASFPLYEPAKM [MKI67_Y340]" measure_name="SH2 binding enrichment" measured_number=0.707
seq_string="NVSILYTASQA [CTNNA1_Y222_P219S]" measure_name="SH2 binding enrichment" measured_number=0.685
seq_string="YQLENCCNGGG [INS_Y108_Y108C]" measure_name="SH2 binding enrichment" measured_number=0.666
seq_string=ENAGFYFQVSA measure_name="SH2 binding enrichment" measured_number=0.658
seq_string="GTFVIYVRFGG [FLNB_Y1687_YF]" measure_name="SH2 binding enrichment" measured_number=0.968
seq_string="ISNATYKQIGL [FLT1_Y199_E201Q]" measure_name="SH2 binding enrichment" measured_number=0.78
seq_string="YDGKEYDPVEA [MAPRE2_Y167]" measure_name="SH2 binding enrichment" measured_number=0.502
seq_string="WAAQRYGRELR [BAD_Y110]" measure_name="SH2 binding enrichment" measured_number=0.583
seq_string="KLSHLYQDHMQ [WNT5A_Y86_C83S]" measure_name="SH2 binding enrichment" measured_number=0.772
seq_string="LSPNMYNSKLW [TARSL2_Y457]" measure_name="SH2 binding enrichment" measured_number=0.763
seq_string="RPIEVYLCPEE [E2F3_Y349_G344R]" measure_name="SH2 binding enrichment" measured_number=0.809
seq_string="QCQLKYSETPF [SIX6OS1_Y129_Y125C]" measure_name="SH2 binding enrichment" measured_number=0.61
seq_string="IRRQGYSHRIL [MYO3B_Y993]" measure_name="SH2 binding enrichment" measured_number=0.526
seq_string="AELVPYFMEHH [PTPN11_Y80_Q79P_YF]" measure_name="SH2 binding enrichment" measured_number=0.787
seq_string="NFFDTCIKTCL [IQGAP2_Y1445_Y1445C_YF]" measure_name="SH2 binding enrichment" measured_number=1.06
seq_string="EDDIIYTQDFM [STK11_Y362_T367M]" measure_name="SH2 binding enrichment" measured_number=0.65
seq_string="TSFSGYRFHRH [NKAPL_Y94_YF]" measure_name="SH2 binding enrichment" measured_number=1.01
seq_string="FGGLRYGFGGL [KRTAP20-2_Y13_V17G_YF]" measure_name="SH2 binding enrichment" measured_number=0.762
seq_string="TVHCDYLNISH [TAF1L_Y1385_P1389S]" measure_name="SH2 binding enrichment" measured_number=0.58
seq_string="IGEGTYRQVFK [CDK13_Y716_G717R_YF]" measure_name="SH2 binding enrichment" measured_number=0.505
seq_string="WSISFYPQVIM [CTNS_Y143]" measure_name="SH2 binding enrichment" measured_number=0.588
seq_string="FHLLPYTIRAM [PARS2_Y93_V95I_YF]" measure_name="SH2 binding enrichment" measured_number=1.62
seq_string="STEAIYWRYSK [SH3PXD2B_Y42_R43W]" measure_name="SH2 binding enrichment" measured_number=0.551
seq_string="RIAFQYGVTDL [MYBPC3_Y340]" measure_name="SH2 binding enrichment" measured_number=0.815

====

system-under-test: Grb2 SH2 (UniProt P62993)
Sequence (P62993 whole entry, looked up): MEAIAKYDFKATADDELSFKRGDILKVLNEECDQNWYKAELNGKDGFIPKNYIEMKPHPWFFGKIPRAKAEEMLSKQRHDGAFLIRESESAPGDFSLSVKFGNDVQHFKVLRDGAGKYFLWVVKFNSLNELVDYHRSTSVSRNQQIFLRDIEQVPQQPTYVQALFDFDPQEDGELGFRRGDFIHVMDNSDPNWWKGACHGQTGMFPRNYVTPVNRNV
test-details: SH2 binding enrichment of the phosphorylated peptide, bacterial display (enrichment ratio); higher = better substrate or ligand; peptides without Tyr show the background
Each entry gets NO if its SH2 binding enrichment stays under 0.9, and YES if its SH2 binding enrichment is 0.9 or above.

seq_string="ISNATYKQIGL [FLT1_Y199_E201Q]" cat=NO
seq_string="QKDTFYGLRSL [IGSF10_Y126]" cat=YES
seq_string="AGIVVYNIIGW [MYH7_Y588_D587V]" cat=NO
seq_string="FKEQGYHRLPP [RIN1_Y681_YF]" cat=YES
seq_string="RTLIRYANLSN [BEST1_Y131_G135S]" cat=YES
seq_string="IYHLSYLHNCE [PDE6B_Y227]" cat=YES
seq_string="LDAFIYDAAVL [GRIN2A_Y730]" cat=YES
seq_string="RPFFLYVAFHN [SGSH_Y174_D179N]" cat=YES
seq_string="HFVDEYDRTIE [KRAS_Y32_P34R]" cat=YES
seq_string="MASTSYDFCRV [BST2_Y6_YF]" cat=YES
seq_string="MFFSTYDRDND [FGB_Y408]" cat=NO
seq_string="QLYGPYLRIHA [BSCL2_Y213_A212P]" cat=YES
seq_string="SVTCTYSPGLN [TP53_Y126_A129G]" cat=NO
seq_string="TVHPGYGFLSE [PCCA_Y143_A138T]" cat=YES
seq_string="EEVKAYLDFRE [CHAC2_Y78]" cat=NO
seq_string="ELTAKYLNFFR [P3H4_Y181_Q186R_YF]" cat=YES
seq_string="RGDCMYASLLG [AR_Y269_P271S]" cat=YES
seq_string="GIKAAYEAERG [LMNA_Y81_L85R]" cat=NO
seq_string="SNSATYSGSVA [PDLIM5_Y382]" cat=NO
seq_string="CTTIHNNFMCN [TP53_Y234_Y234N_YF]" cat=YES
seq_string="FHLGKYLQEVL [KLB_Y910_Y906H_YF]" cat=NO
seq_string="GREEFYVHYVG [KAT8_Y90]" cat=NO
seq_string="RAIGYYSATSK [FAM120A_Y328]" cat=YES
seq_string="ARAHKYHGGGG [HBB_Y146_L142R]" cat=YES
seq_string="HNVPIYEGFGL [ACTA1_Y168_A172G_YF]" cat=NO
